Give Growth Rate for every item shown.
test system: U2OS; assay: Incucyte cell viability with U2OS; assay type: toxicity, cell-based; conditions: human, 24 h, 10 µM, compound concentration 10 uM, replicate number 1, timepoint 24 hours; further: filed as whole numbers so only -1 and 0 and 1 occur

Param readout= Growth Rate; system= U2OS; entry= COc1cc2ncn(-c3cc(OCc4ccccc4C(F)(F)F)c(C(N)=O)s3)c2cc1OC [GW843682X] ; returns value.
0

Do the same for Cc1cc([C@@H](C)Nc2ccccc2C(=O)O)c2nc(N3CCOCC3)cc(=O)n2c1 please
0

Do the same for O=S1(=O)c2cccc3cccc(c23)N1CCCN1CCN(c2ccc(F)cc2)CC1 please
1

Do the same for C[C@H](c1ccc(F)cc1)N(Cc1cccc(C(=O)O)c1)C(=O)c1cnc2ccccc2c1 please
0

Do the same for O=c1cc(N2CCOCC2)oc2c(-c3cccc4c3sc3ccccc34)cccc12 please
0

====

test system: HEK-293T; assay: Multiplex assay against HEK293T; type: toxicity, cell-based; details: human, 12 h, 10 µM, compound concentration 10 uM, replicate 1;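 further: share of the cells with healthy nuclei that show this phenotype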
measurement label: Population Tubulin-Different-Phenotype (%)
Write it as a number; the unit % goes unstated.

What Population Tubulin-Different-Phenotype (%) value was documented for this compound, CCCSc1nc(N[C@@H]2C[C@H]2c2ccc(F)c(F)c2)c2nnn([C@@H]3C[C@H](OCCO)[C@@H](O)[C@H]3O)c2n1 ?
85

Do the same for CC(C)(C)NC[C@H](O)COc1nsnc1N1CCOCC1 please
53

Do the same for COc1cc2ncn(-c3cc(OCc4ccccc4C(F)(F)F)c(C(N)=O)s3)c2cc1OC [GW843682X] please
97

Do the same for Cc1cccc(CN2CCN(C(c3ccccc3)c3ccc(Cl)cc3)CC2)c1.Cl.Cl (stereo not drawn) please
85

Do the same for CNC(=O)Nc1ccc2c(c1)[C@@]1(CC2)OC(=O)N(CC(=O)N(Cc2ccc(F)cc2)[C@@H](C)C(F)(F)F)C1=O please
4

Do the same for Cl.O=C(O)c1cc(-c2ccc(C3CCNCC3)cc2)c2ccc(-c3ccc(C(F)(F)F)cc3)cc2c1 please
49

Do the same for Cc1nc(N2CC[C@H](O)C2)ncc1-c1cc(C(F)(F)F)cc2[nH]ncc12 please
3

Do the same for CNC(=O)Nc1ccc(-c2nc(N3CC4CCC(C3)O4)c3cnn(C4CCC5(CC4)OCCO5)c3n2)cc1 please
88

====

test system: HEK-293T; experiment: Incucyte cell viability with HEK293T; format: toxicity, cell-based; settings: human, 0 h, 10 µM, compound concentration 10 uM, replicate number 1, timepoint 0 hours; further: filed as whole numbers so only -1 and 0 and 1 occur
measurement label: Growth Rate
Please reply with the number alone, leaving off any unit.

What Growth Rate value was documented for this molecule, Cc1cnc(-c2cc(Cl)ccc2F)cc1-n1c(=O)n(CC(N)=O)c2ccccc21 ?
0

Do the same for Cc1c[nH]c2nccc(Oc3c(F)cc(Nc4cc(Cl)nc(N)n4)cc3F)c12 please
0

Do the same for C[C@]12CC[C@@H]3c4ccc(O)cc4CC[C@H]3[C@@H]1CC[C@@H]2O please
1

Do the same for O=C(Cc1ccccc1)Nc1nc2ccc(Cl)cc2c2nc(-c3ccco3)nn12 please
1

Do the same for O=C(O)CC/C=C\C[C@@H]1CO[C@H](c2ccccc2Cl)O[C@@H]1c1ccccc1O please
0

Do the same for CC(C)Oc1ccc(-c2c[nH]cc2CN(C)CCN)cc1 please
0

Do the same for Cn1c(CNc2cccc(C(=O)NCc3ccccc3C(F)(F)F)c2)nnc1-c1ccncc1 please
0

Do the same for CC1(C)CCC(C)(C)c2cc(C(=O)Nc3ccc(C(=O)O)cc3)ccc21 please
0

Do the same for CC(C)NC(=O)N1CC[C@H](NC2=Nc3cc(F)ccc3N(CC(F)F)c3ccc(Cl)cc32)C1 please
0
